System: 5-HT2cR mRNA
Experiment: Editing profile of 5-HT2cR mRNA isoforms by CE-SSCP (nested PCR) in SH-SY5Y cells; enzyme activity indexes worked out from the profile
Type: cell-based, human
Settings: Homo sapiens, SH-SY5Y, 24 h, read-out: ENZYME ACTIVIY INDEX (% of variation) ADAR1
Provide the recorded activation at 10 µM for the entries that follow.
Give bare numbers, in %.

Look over these answered cases.
compound	activation at 10 µM, %
CNCCCN1c2ccccc2CCc2ccccc21	-8.6
CCNC(C)Cc1cccc(C(F)(F)F)c1 (centres unmarked)	4.2

For each entry beneath this line, provide reported activation at 10 µM.
1. NCC1(CC(=O)O)CCCCC1
2. CC(C)C[C@H](CN)CC(=O)O
3. Cc1cc2c(s1)Nc1ccccc1N=C2N1CCN(C)CC1

Response:
[19.2, 2.5, -23.2]
